# procedureText: Whole blood pharmacokinetics of oral ridaforolimus 40 mg in Chinese patients (HPLC-MS/MS, WinNonlin)
# Assay type: in vivo
# conditions: human, whole blood, po, 40 mg, Day 1, single oral dose 40 mg, whole blood; harmonic mean; read-out: Apparent t1/2 (elimination half-life) (converted)
readoutLabel: half-life

1) CO[C@H]1C[C@@H]2CC[C@@H](C)[C@@](O)(O2)C(=O)C(=O)N2CCCC[C@H]2C(=O)O[C@H]([C@H](C)C[C@@H]2CC[C@@H](OP(C)(C)=O)[C@H](OC)C2)CC(=O)[C@H](C)/C=C(\C)[C@@H](O)[C@@H](OC)C(=O)[C@H](C)C[C@H](C)/C=C/C=C/C=C/1C :: 53 h

----------
# procedureText: Whole blood pharmacokinetics of oral ridaforolimus 40 mg in Chinese patients (HPLC-MS/MS, WinNonlin)
# Assay type: in vivo
# conditions: human, whole blood, po, 40 mg, Day 1, single oral dose 40 mg, whole blood; geometric mean; read-out: AUC0-24
readoutLabel: AUC(0-t)

1. CO[C@H]1C[C@@H]2CC[C@@H](C)[C@@](O)(O2)C(=O)C(=O)N2CCCC[C@H]2C(=O)O[C@H]([C@H](C)C[C@@H]2CC[C@@H](OP(C)(C)=O)[C@H](OC)C2)CC(=O)[C@H](C)/C=C(\C)[C@@H](O)[C@@H](OC)C(=O)[C@H](C)C[C@H](C)/C=C/C=C/C=C/1C [ridaforolimus, Ridaforolimus] :: 1850 ng·h/mL

----------
# procedureText: Whole blood pharmacokinetics of oral ridaforolimus 40 mg in Chinese patients (HPLC-MS/MS, WinNonlin)
# Format: in vivo
# conditions: human, whole blood, po, 40 mg, Day 1, single oral dose 40 mg, whole blood; median; read-out: Tmax
readoutLabel: Tmax (h)

1. CO[C@H]1C[C@@H]2CC[C@@H](C)[C@@](O)(O2)C(=O)C(=O)N2CCCC[C@H]2C(=O)O[C@H]([C@H](C)C[C@@H]2CC[C@@H](OP(C)(C)=O)[C@H](OC)C2)CC(=O)[C@H](C)/C=C(\C)[C@@H](O)[C@@H](OC)C(=O)[C@H](C)C[C@H](C)/C=C/C=C/C=C/1C :: 4

----------
# procedureText: Whole blood pharmacokinetics of oral ridaforolimus 40 mg in Chinese patients (HPLC-MS/MS, WinNonlin)
# Type: in vivo
# conditions: human, whole blood, po, 40 mg, Day 19, multiple once daily oral 40 mg, whole blood; geometric mean; read-out: Cmax
readoutLabel: Cmax

1) CO[C@H]1C[C@@H]2CC[C@@H](C)[C@@](O)(O2)C(=O)C(=O)N2CCCC[C@H]2C(=O)O[C@H]([C@H](C)C[C@@H]2CC[C@@H](OP(C)(C)=O)[C@H](OC)C2)CC(=O)[C@H](C)/C=C(\C)[C@@H](O)[C@@H](OC)C(=O)[C@H](C)C[C@H](C)/C=C/C=C/C=C/1C [ridaforolimus, Ridaforolimus] :: 167 ng/mL

----------
# procedureText: Whole blood pharmacokinetics of oral ridaforolimus 40 mg in Chinese patients (HPLC-MS/MS, WinNonlin)
# Format: in vivo
# conditions: human, whole blood, po, 40 mg, Day 19, multiple once daily oral 40 mg (steady state), whole blood; geometric mean; read-out: AUC0-24
# Experimental: The eligible patients were given the following treatment regimen: a single oral dose of 40 mg of ridaforolimus on Day 1; and then, the treatment started from Day 8 with an oral dose of 40 mg of ridaforolimus for five consecutive days (on Day 8 through Day 12) followed by two day's off (Day 13 and 14). The treatment repeated every 7 days. […] We monitored patients’ vital signs and conducted laboratory and physical examinations on trial Day 1, 8 and 19. […]
readoutLabel: AUC(0-t) (ng·h/mL)

1) CO[C@H]1C[C@@H]2CC[C@@H](C)[C@@](O)(O2)C(=O)C(=O)N2CCCC[C@H]2C(=O)O[C@H]([C@H](C)C[C@@H]2CC[C@@H](OP(C)(C)=O)[C@H](OC)C2)CC(=O)[C@H](C)/C=C(\C)[C@@H](O)[C@@H](OC)C(=O)[C@H](C)C[C@H](C)/C=C/C=C/C=C/1C :: 2010

----------
# procedureText: Whole blood pharmacokinetics of oral ridaforolimus 40 mg in Chinese patients (HPLC-MS/MS, WinNonlin)
# Format: in vivo
# conditions: human; Day 1, single oral dose 40 mg, whole blood; geometric mean
readoutLabel: AUC(0-inf) (ng·h/mL)

1. CO[C@H]1C[C@@H]2CC[C@@H](C)[C@@](O)(O2)C(=O)C(=O)N2CCCC[C@H]2C(=O)O[C@H]([C@H](C)C[C@@H]2CC[C@@H](OP(C)(C)=O)[C@H](OC)C2)CC(=O)[C@H](C)/C=C(\C)[C@@H](O)[C@@H](OC)C(=O)[C@H](C)C[C@H](C)/C=C/C=C/C=C/1C :: 3650

----------
# procedureText: Whole blood pharmacokinetics of oral ridaforolimus 40 mg in Chinese patients (HPLC-MS/MS, WinNonlin)
# Type: in vivo
# conditions: human, whole blood, po, 40 mg, Day 19, multiple once daily oral 40 mg, whole blood; geometric mean; read-out: C24hr
readoutLabel: concentration at 24 h

1) CO[C@H]1C[C@@H]2CC[C@@H](C)[C@@](O)(O2)C(=O)C(=O)N2CCCC[C@H]2C(=O)O[C@H]([C@H](C)C[C@@H]2CC[C@@H](OP(C)(C)=O)[C@H](OC)C2)CC(=O)[C@H](C)/C=C(\C)[C@@H](O)[C@@H](OC)C(=O)[C@H](C)C[C@H](C)/C=C/C=C/C=C/1C [ridaforolimus, Ridaforolimus] :: 49.7 ng/mL

----------
# procedureText: Whole blood pharmacokinetics of oral ridaforolimus 40 mg in Chinese patients (HPLC-MS/MS, WinNonlin)
# Type: in vivo
# conditions: human, whole blood, po, 40 mg, Day 19, multiple once daily oral 40 mg; read-out: Cmax, median value
readoutLabel: Cmax (ng/mL)

1) CO[C@H]1C[C@@H]2CC[C@@H](C)[C@@](O)(O2)C(=O)C(=O)N2CCCC[C@H]2C(=O)O[C@H]([C@H](C)C[C@@H]2CC[C@@H](OP(C)(C)=O)[C@H](OC)C2)CC(=O)[C@H](C)/C=C(\C)[C@@H](O)[C@@H](OC)C(=O)[C@H](C)C[C@H](C)/C=C/C=C/C=C/1C :: 203

----------
# procedureText: Whole blood pharmacokinetics of oral ridaforolimus 40 mg in Chinese patients (HPLC-MS/MS, WinNonlin)
# Format: in vivo
# conditions: human, whole blood, po, 40 mg, Day 1, single oral dose 40 mg, whole blood; geometric mean; read-out: Cmax
# Description: The eligible patients were given the following treatment regimen: a single oral dose of 40 mg of ridaforolimus on Day 1; and then, the treatment started from Day 8 with an oral dose of 40 mg of ridaforolimus for five consecutive days (on Day 8 through Day 12) followed by two day's off (Day 13 and 14). The treatment repeated every 7 days. […] We monitored patients’ vital signs and conducted laboratory and physical examinations on trial Day 1, 8 and 19. […]
readoutLabel: Cmax (ng/mL)

1) CO[C@H]1C[C@@H]2CC[C@@H](C)[C@@](O)(O2)C(=O)C(=O)N2CCCC[C@H]2C(=O)O[C@H]([C@H](C)C[C@@H]2CC[C@@H](OP(C)(C)=O)[C@H](OC)C2)CC(=O)[C@H](C)/C=C(\C)[C@@H](O)[C@@H](OC)C(=O)[C@H](C)C[C@H](C)/C=C/C=C/C=C/1C [ridaforolimus, Ridaforolimus] :: 210

----------
# procedureText: Whole blood pharmacokinetics of oral ridaforolimus 40 mg in Chinese patients (HPLC-MS/MS, WinNonlin)
# Type: in vivo
# conditions: human, whole blood, po, 40 mg, Day 1, single oral dose 40 mg; read-out: Cmax, median value
readoutLabel: Cmax (ng/mL)

1) CO[C@H]1C[C@@H]2CC[C@@H](C)[C@@](O)(O2)C(=O)C(=O)N2CCCC[C@H]2C(=O)O[C@H]([C@H](C)C[C@@H]2CC[C@@H](OP(C)(C)=O)[C@H](OC)C2)CC(=O)[C@H](C)/C=C(\C)[C@@H](O)[C@@H](OC)C(=O)[C@H](C)C[C@H](C)/C=C/C=C/C=C/1C [ridaforolimus, Ridaforolimus] :: 192
